- Tested on: Vero E6 infected with SARS-CoV-2
- TEST PROTOCOL: inhibition of SARS-CoV-2 cytopathic effect; higher = more antiviral protection, active = above 15
- CONDITION PARAMETERS: 10000 nM; 48 h
Just give me one of these, please: active, inactive

Here's what some known entries look like.
MOLECULE	TESTED SYSTEM	CATEGORY LABEL
CC(C)(C)C[C@@H]1N[C@@H](C(=O)N[C@H]2CC[C@H](O)CC2)[C@H](c2cccc(Cl)c2F)[C@]12C(=O)Nc1cc(Cl)ccc12	Vero E6 infected with SARS-CoV-2	inactive
Nc1ccn([C@@H]2CS[C@H](CO)O2)c(=O)n1	Vero E6 infected with SARS-CoV-2	inactive
COc1ccc2c(c1)[C@]13CCCC[C@@H]1[C@H](C2)N(C)CC3	Vero E6 infected with SARS-CoV-2	inactive
COC(F)(F)C(Cl)Cl	Vero E6 infected with SARS-CoV-2	inactive
Nc1nc2c(ncn2COCCO)c(=O)[nH]1	Vero E6 infected with SARS-CoV-2	inactive
CC(C)n1cnc2c(NCCc3ccc(O)cc3)nc(-c3csc4ccccc34)nc21	Vero E6 infected with SARS-CoV-2	active

## Input Which result was noted for this molecule in the test: O=P(O)(O)C(O)(Cn1ccnc1)P(=O)(O)O
## Output inactive

## Input Returns: the outcome recorded for FC(F)c1nc2ccccc2n1-c1nc(N2CCOCC2)nc(N2CCOCC2)n1 in this assay.
## Output inactive

## Input Outcome? Cc1sc(N)c(C(=O)c2cccc(C(F)(F)F)c2)c1C
## Output inactive

## Input Please state the recorded outcome for this molecule: C[C@H]1c2cccc(O)c2C(=O)C2=C(O)[C@]3(O)C(=O)C(C(N)=O)=C(O)[C@@H](N(C)C)[C@@H]3[C@@H](O)[C@@H]21
## Output inactive

## Input Identify the outcome logged in this assay for the molecule shown: OC[C@@H](O)[C@@H](O)[C@@H](O)CO
## Output inactive

## Input For this molecule, state the assay outcome: CCCCCCCCCCCCCCCCOc1nc2ccc(C)cc2c(=O)o1
## Output inactive

## Input Fill in: this test's call for CO[C@]12C[C@@H](COC(=O)c3cncc(Br)c3)CN(C)[C@@H]1Cc1cn(C)c3cccc2c13 is ___
## Output inactive

## Input Can you look up the reported call for O=c1[nH]c2cc(C(F)(F)F)c(N3CCOCC3)cc2n(CP(=O)(O)O)c1=O for me?
## Output inactive
